- System: H3255
- EXPERIMENT_NOTES: relative viability (nuclei count vs DMSO), 5 days (fraction); higher = more cells survive
- SETTINGS: first compound 2 µM
Mark yes (1) for relative viability under 0.5, no (0) if at or over.

{"columns": ["COMPOUND", "CATEGORY_LABEL"],
 "data": [
  ["Cc1csc(=NC2CCCCC2)n1/N=C/c1ccc(O)c(O)c1O [MIM1] + CCNC(=O)c1noc(-c2cc(C(C)C)c(O)cc2O)c1-c1ccc(CN2CCOCC2)cc1 [Luminespib] (partner 0.01 µM)", "no (0)"],
  ["Cc1csc(=NC2CCCCC2)n1/N=C/c1ccc(O)c(O)c1O [MIM1] + O=C(c1cc(Cc2n[nH]c(=O)c3ccccc23)ccc1F)N1CCN(C(=O)C2CC2)CC1 [Olaparib] (partner 8 µM)", "no (0)"],
  ["CN1CCN(CCOc2cc(OC3CCOCC3)c3c(Nc4c(Cl)ccc5c4OCO5)ncnc3c2)CC1 [Saracatinib] + CC1(C)CCC(c2ccc(Cl)cc2)=C(CN2CCN(c3ccc(C(=O)NS(=O)(=O)c4ccc(N[C@H](CCN5CCOCC5)CSc5ccccc5)c(S(=O)(=O)C(F)(F)F)c4)cc3)CC2)C1 [Navitoclax] (partner 0.5 µM)", "yes (1)"],
  ["Cc1csc(=NC2CCCCC2)n1/N=C/c1ccc(O)c(O)c1O [MIM1] + CS(=O)(=O)N1CCN(Cc2cc3nc(-c4cccc5[nH]ncc45)nc(N4CCOCC4)c3s2)CC1 [Pictilisib] (partner 1 µM)", "yes (1)"],
  ["Cc1csc(=NC2CCCCC2)n1/N=C/c1ccc(O)c(O)c1O [MIM1] + CC(=O)Nc1cccc(-n2c(=O)n(C3CC3)c(=O)c3c(Nc4ccc(I)cc4F)n(C)c(=O)c(C)c32)c1 [Trametinib] (partner 0.02 µM)", "no (0)"],
  ["Cc1csc(=NC2CCCCC2)n1/N=C/c1ccc(O)c(O)c1O [MIM1] + COc1cccc2cc(-c3nc([C@H]4CC[C@H](C(=O)O)CC4)n4ncnc(N)c34)[nH]c12 [OSI-027] (partner 0.5 µM)", "no (0)"],
  ["CN1CCN(CCOc2cc(OC3CCOCC3)c3c(Nc4c(Cl)ccc5c4OCO5)ncnc3c2)CC1 [Saracatinib] + Nc1nc2[nH]cc(CCc3ccc(C(=O)N[C@@H](CCC(=O)O)C(=O)O)cc3)c2c(=O)[nH]1 [Pemetrexed] (partner 0.2 µM)", "yes (1)"],
  ["Cc1csc(=NC2CCCCC2)n1/N=C/c1ccc(O)c(O)c1O [MIM1] + C[C@]1(O)C[C@@H](c2nc(-c3ccc4ccc(-c5ccccc5)nc4c3)c3c(N)nccn32)C1 [Linsitinib] (partner 1 µM)", "no (0)"],
  ["Cc1csc(=NC2CCCCC2)n1/N=C/c1ccc(O)c(O)c1O [MIM1] + CC1(C)CCC(c2ccc(Cl)cc2)=C(CN2CCN(c3ccc(C(=O)NS(=O)(=O)c4ccc(N[C@H](CCN5CCOCC5)CSc5ccccc5)c(S(=O)(=O)C(F)(F)F)c4)cc3)CC2)C1 [Navitoclax] (partner 0.5 µM)", "yes (1)"],
  ["CN1CCN(CCOc2cc(OC3CCOCC3)c3c(Nc4c(Cl)ccc5c4OCO5)ncnc3c2)CC1 [Saracatinib] + Nc1ncn([C@H]2C[C@H](O)[C@@H](CO)O2)c(=O)n1 [Decitabine] (partner 2 µM)", "yes (1)"],
  ["Cc1csc(=NC2CCCCC2)n1/N=C/c1ccc(O)c(O)c1O [MIM1] + C[C@@H](Oc1cc(-c2cnn(C3CCNCC3)c2)cnc1N)c1c(Cl)ccc(F)c1Cl [Crizotinib] (partner 1 µM)", "no (0)"]
]}
